The origin of these recorded values is the supplement of paper PMC10567573.

B1: HNF4A (parent)
chain: RFSRQCVVDKDKRNQCRYCRLKKC

- Variants of: B1
- experimental protocol: protein stability index of a GFP-peptide fusion (GPS, HEK-293T) (PSI 1-6); higher = more stable;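 note: lentivirally expressed fusions sorted by FACS into six bins by GFP to DsRed ratio, PSI derived from sequencing read proportions per bin multiplied by bin number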
- conditions: c terminus: a fixed tail appended
measured endpoint: protein stability index

K12D    2.13
V8W    2.4
K22Q    1.79
C24T    3.08
V7W    2.47

Form field protein stability index, entry S3F : 1.91

Form field protein stability index, entry C16I : 2.93

Form field protein stability index, entry N14C : 3.46
